- Tested on: Streptococcus sp. 'group A'
- assay.text: Streptococcus pyogenes SK(-)GAS viability under kanamycin – luminescence, BacTiterGlo, confirmation, counter-screen for streptokinase expression inhibitor project, dose response (AID 1900)
- Assay type: functional, organism-based
Active and inactive are the calls of the source.
Item-by-item account of EC50
parameter.measured: EC50

>>> recorded_result("COc1ccc(-c2cc3nc(-c4ccccc4)cc(N4CCCC(O)C4)n3n2)cc1 (centres undefined)")
"6.75 µM (active)"
>>> recorded_result("Nc1nc(NCCOCCO)nc(N2CCCCCC2)c1[N+](=O)[O-]")
"5.73 µM (active)"
>>> recorded_result("CCC(=O)N1NC(=C2C(=O)N(C)C(=O)N(C)C2=O)CC1c1ccccc1 (centres undefined)")
"4.93 µM (active)"
>>> recorded_result("Cc1ccc(Cc2cnc(N3C(=N)SC(c4ccccc4)C3=O)s2)cc1 (centres undefined)")
"0.181 µM (active)"

---

- tested.on: Sentrin-specific protease 8 (Homo sapiens, UniProt Q96LD8)
- Sequence (Q96LD8 whole entry): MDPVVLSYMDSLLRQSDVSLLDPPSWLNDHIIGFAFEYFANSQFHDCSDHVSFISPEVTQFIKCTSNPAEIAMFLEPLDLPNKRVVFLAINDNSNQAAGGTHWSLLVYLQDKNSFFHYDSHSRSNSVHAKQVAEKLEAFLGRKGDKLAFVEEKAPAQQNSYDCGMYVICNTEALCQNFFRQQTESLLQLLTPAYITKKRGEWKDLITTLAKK
- Assay type: functional
Active and inactive are the calls of the source.
Outcome codes: active, inactive

>>> label("O=C1C=C(Nc2ccccc2)c2ccccc2C1=O")
"active"
>>> label("Cc1ccc(NC(=O)c2oc3ccccc3c2C)nc1")
"inactive"
>>> label("Cc1cc(-c2csc(Nc3ccccn3)n2)ccc1F")
"active"
>>> label("O=C1/C(=C/c2ccc([N+](=O)[O-])cc2)CCc2ccccc21")
"active"
>>> label("O=c1cc(-c2ccc(O)cc2)oc2ccc(O)cc12")
"active"
>>> label("CC1OC(Nc2cccc3ccccc23)C(O)C(O)C1O (stereo unspecified)")
"active"

---

- tested.on: Estrogen receptor beta (Homo sapiens)
- Sequence (Q92731 whole entry): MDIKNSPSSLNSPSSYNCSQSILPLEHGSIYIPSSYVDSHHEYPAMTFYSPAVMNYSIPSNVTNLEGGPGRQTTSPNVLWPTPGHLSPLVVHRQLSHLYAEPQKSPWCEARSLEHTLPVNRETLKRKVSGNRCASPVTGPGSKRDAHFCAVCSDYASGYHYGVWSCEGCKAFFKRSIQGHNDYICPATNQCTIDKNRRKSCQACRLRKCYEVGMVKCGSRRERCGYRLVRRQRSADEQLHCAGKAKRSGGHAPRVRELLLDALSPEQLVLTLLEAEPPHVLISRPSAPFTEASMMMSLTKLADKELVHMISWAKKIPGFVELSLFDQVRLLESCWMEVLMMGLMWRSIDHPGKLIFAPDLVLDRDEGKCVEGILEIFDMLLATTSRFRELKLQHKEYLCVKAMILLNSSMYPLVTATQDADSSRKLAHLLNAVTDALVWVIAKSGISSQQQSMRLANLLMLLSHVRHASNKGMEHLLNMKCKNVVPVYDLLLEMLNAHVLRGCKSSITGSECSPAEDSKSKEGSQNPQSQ
- assay.text: blockers of SRC-3 recruitment to ERβ – biochemical, ELISA, streptavidin-HRP readout, orthogonal assay, confirmation (AID 1060)
parameter.measured: IC50

>>> recorded_result("NC(=O)c1ccsc1NC(=O)COC(=O)Cc1ccsc1")
"1840 nM (not active)"
>>> recorded_result("COc1cccc(-c2[nH]nc3c2C(c2ccoc2)C(C#N)=C(N)O3)c1 (stereo not given)")
"> 50000 nM (not active)"
>>> recorded_result("N#Cc1cc2c(nc1SCc1ccccc1)CCC2")
"25.4 nM (not active)"
>>> recorded_result("N#CC1=C(SCC(=O)Nc2cccc3cccnc23)NC(=O)C(C#N)C12CCCCC2 (stereo not given)")
"> 50000 nM (not active)"
>>> recorded_result("CCOC(=O)c1ccc(NC(=O)CSc2nc(C)cc(=O)[nH]2)cc1")
"< 23 nM (not active)"

---

- tested.on: Paired box protein Pax-8 (Homo sapiens, UniProt Q06710)
- Sequence (Q06710 whole entry): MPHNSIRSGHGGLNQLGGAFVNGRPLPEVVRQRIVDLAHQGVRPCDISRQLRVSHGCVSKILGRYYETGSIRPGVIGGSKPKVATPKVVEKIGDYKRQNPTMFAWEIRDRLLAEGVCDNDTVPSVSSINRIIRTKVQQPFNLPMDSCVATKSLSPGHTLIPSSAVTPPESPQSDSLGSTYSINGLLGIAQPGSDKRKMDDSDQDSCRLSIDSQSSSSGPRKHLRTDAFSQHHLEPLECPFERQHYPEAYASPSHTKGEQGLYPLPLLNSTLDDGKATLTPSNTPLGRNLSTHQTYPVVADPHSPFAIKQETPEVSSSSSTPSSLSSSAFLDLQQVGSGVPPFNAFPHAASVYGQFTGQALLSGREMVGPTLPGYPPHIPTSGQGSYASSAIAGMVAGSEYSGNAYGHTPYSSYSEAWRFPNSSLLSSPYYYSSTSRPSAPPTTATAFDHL
- assay.text: PAX8 transcriptional activity inhibition in RMG-I – RMG-I cells, luciferase, cherry-pick, dose response (AID 687027);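 also: luciferase reporter driven by Pax8 target thyroperoxidase promoter measured by SteadyGlo luminescence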
- Format: functional, cell-based
Active and inactive are the calls of the source.
This section presents molecules with their documented AC50 values.
parameter.measured: AC50

>>> recorded_result("Cc1noc(C)c1S(=O)(=O)Nc1ccc2c(c1)C(=O)N([C@H](C)CO)C[C@H](C)[C@@H](CN(C)C(=O)Nc1ccc(C(F)(F)F)cc1)OCCCC[C@H](C)O2")
"9.4 µM (active)"
>>> recorded_result("C[C@@H]1CCCCO[C@@H](CN(C)C(=O)Nc2ccc(C(F)(F)F)cc2)[C@H](C)CN([C@H](C)CO)C(=O)c2cc(NS(=O)(=O)c3ccc(Cl)cc3)ccc2O1")
"3.25 µM (active)"
>>> recorded_result("C[C@@H]1CN([C@@H](C)CO)C(=O)Cc2cc(NC(=O)Nc3ccc(C(F)(F)F)cc3)ccc2O[C@H]1CN(C)C(=O)Nc1ccc(C(F)(F)F)cc1")
"8.87 µM (active)"
>>> recorded_result("Cn1c(CCN2CCN(c3ccccn3)CC2)nc2cc(NS(=O)(=O)c3ccc(Cl)cc3)ccc21")
"8.15 µM (active)"
>>> recorded_result("C[C@@H]1CN([C@@H](C)CO)S(=O)(=O)c2ccc(C#Cc3ccc(F)cc3)cc2O[C@H]1CN(C)C(=O)NC1CCCCC1")
"7.93 µM (active)"
>>> recorded_result("C[C@H](CO)N1C[C@H](C)[C@H](CN(C)S(=O)(=O)c2cccc(F)c2)OCc2ccccc2-c2c(n(C)c3ccccc23)C1=O")
"11.3 µM (active)"
>>> recorded_result("C[C@@H]1CN([C@@H](C)CO)C(=O)Cc2cc(NC(=O)Cc3ccccc3)ccc2O[C@H]1CN(C)Cc1ccc(-c2ccccc2)cc1")
"9.31 µM (active)"
>>> recorded_result("C[C@@H]1CN([C@@H](C)CO)C(=O)c2cc(NC(=O)Nc3ccc(C(F)(F)F)cc3)ccc2O[C@H]1CN(C)C(=O)Nc1ccc(C(F)(F)F)cc1")
"5.97 µM (active)"
>>> recorded_result("COc1ccccc1C(=O)Nc1nc2ccccc2s1")
"3.69 µM (active)"
>>> recorded_result("C[C@H]1CCCCO[C@H](CN(C)C(=O)Nc2ccc(C(F)(F)F)cc2)[C@@H](C)CN([C@@H](C)CO)C(=O)c2cc(NS(=O)(=O)c3ccc(F)cc3)ccc2O1")
"4.63 µM (active)"
>>> recorded_result("C[C@@H]1CCCCO[C@H](CN(C)Cc2ccc(Cl)c(Cl)c2)[C@@H](C)CN([C@@H](C)CO)C(=O)c2cc(NC(=O)Cc3ccccc3)ccc2O1")
"11.2 µM (active)"

---

- tested.on: Replicative DNA helicase DnaB (Mycobacterium tuberculosis)
- assay.text: DnaB intein splicing inhibitors, dose response, biochemical, cell-free fluorescence (AID 449749)
- Assay type: functional
Calls of active or inactive are those of the source.
Outcomes: 1 (active), -1 (inactive)

>>> label("O=C(Nc1ccccc1)c1nnsc1[S+]([O-])c1ccc(Cl)cc1 (stereo unspecified)")
1
>>> label("CC1=C(C)/C(=N/OC(=O)c2cccc([N+](=O)[O-])c2)C=CC1=O")
-1
>>> label("Cc1ccc(CS(=O)(=O)c2ncc(Cl)c(C(=O)Nc3nnc(C(C)C)s3)n2)cc1")
1
>>> label("Cc1ccc(OC(=O)c2ccc([N+](=O)[O-])cc2Cl)cn1")
1
>>> label("CC1OC(Nc2cccc3ccccc23)C(O)C(O)C1O (stereo unspecified)")
-1
>>> label("O=C1C=C(Nc2ccccc2)c2ccccc2C1=O")
1
>>> label("O=[N+]([O-])c1ccc(N2CCCC(C(F)(F)F)C2)c2ccncc12 (stereo unspecified)")
-1
>>> label("COC(=O)CN1C(c2ccc(Cl)cc2)=Nc2ccc(Cl)cc2C1c1ccccc1 (stereo unspecified)")
1
>>> label("CC(C)Nc1ccc(Nc2ccccc2)cc1")
1
>>> label("CCCc1nn(-c2ccccc2)c2c1C(c1cccs1)C(C#N)=C(N)O2 (stereo unspecified)")
1
>>> label("O=C1CC(NC(=O)C(F)(F)F)=NN1c1ccccc1")
1

---

- tested.on: RNA-binding protein pos-1 (Caenorhabditis elegans, UniProt G5EF15)
- Sequence (G5EF15 whole entry): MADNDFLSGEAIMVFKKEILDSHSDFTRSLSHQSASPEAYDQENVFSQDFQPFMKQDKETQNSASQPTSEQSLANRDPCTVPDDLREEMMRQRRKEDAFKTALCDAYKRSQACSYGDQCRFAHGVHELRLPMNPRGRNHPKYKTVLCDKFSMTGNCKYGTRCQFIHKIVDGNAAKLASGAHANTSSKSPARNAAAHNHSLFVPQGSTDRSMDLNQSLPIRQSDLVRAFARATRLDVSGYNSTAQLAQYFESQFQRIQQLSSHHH
- assay.text: disruptors of C. elegans POS-1 RNA interaction – biochemical, fluorescence polarization, dose response (AID 1964);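 also: purified POS-1 fused to maltose binding protein made in E. coli; potency of compounds blocking POS-1 binding to fluorescent RNA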
Activity calls are given as the source filed them.
Reported EC50 by item:
parameter.measured: EC50

>>> recorded_result("CN1C(=O)NC(=O)/C(=C\\c2ccc([N+](=O)[O-])o2)C1=O")
"33.3 µM (active)"
>>> recorded_result("O=C1CSC(=S)N1/N=C/c1ccc(O)c(O)c1O")
"5.17 µM (inconclusive)"
>>> recorded_result("O=C(O)c1cccc(-n2cccc2/C=C2/SC(=O)N(CC(=O)N3CCCC3)C2=O)c1")
"> 300 µM (not active)"
>>> recorded_result("Nc1c(NCCC2=CCCCC2)c(=O)[nH]c(=O)n1Cc1ccccc1")
"23.2 µM (active)"
>>> recorded_result("O=C1NC(=O)C(=Cc2cn(CCOc3ccc4c(c3)OCO4)c3ccccc23)C(=O)N1")
"16.7 µM (active)"
>>> recorded_result("COc1ccc(C2C(C(=O)c3ccco3)=C(O)C(=O)N2c2nnc(C)s2)cc1OC (stereo not given)")
"> 300 µM (not active)"
>>> recorded_result("CCN(CC)c1ccc(/C=N/NC(=O)c2ccco2)c(O)c1")
"> 300 µM (not active)"
>>> recorded_result("O=C(/C=C/c1ccc(O)c(O)c1)c1ccccc1O")
"> 300 µM (not active)"
>>> recorded_result("NS(=O)(=O)c1ccc(NC(S)=NNC(=O)CCC(=O)Nc2ccccc2Cl)cc1")
"13 µM (inconclusive)"
>>> recorded_result("CC1=C(C#N)C(=O)NC(=O)/C1=C\\c1ccc(-c2cc(C)c(C)cc2[N+](=O)[O-])o1")
"> 300 µM (not active)"
